- tgt: BSEP (Homo sapiens, UniProt O95342)
- Sequence (O95342 whole entry): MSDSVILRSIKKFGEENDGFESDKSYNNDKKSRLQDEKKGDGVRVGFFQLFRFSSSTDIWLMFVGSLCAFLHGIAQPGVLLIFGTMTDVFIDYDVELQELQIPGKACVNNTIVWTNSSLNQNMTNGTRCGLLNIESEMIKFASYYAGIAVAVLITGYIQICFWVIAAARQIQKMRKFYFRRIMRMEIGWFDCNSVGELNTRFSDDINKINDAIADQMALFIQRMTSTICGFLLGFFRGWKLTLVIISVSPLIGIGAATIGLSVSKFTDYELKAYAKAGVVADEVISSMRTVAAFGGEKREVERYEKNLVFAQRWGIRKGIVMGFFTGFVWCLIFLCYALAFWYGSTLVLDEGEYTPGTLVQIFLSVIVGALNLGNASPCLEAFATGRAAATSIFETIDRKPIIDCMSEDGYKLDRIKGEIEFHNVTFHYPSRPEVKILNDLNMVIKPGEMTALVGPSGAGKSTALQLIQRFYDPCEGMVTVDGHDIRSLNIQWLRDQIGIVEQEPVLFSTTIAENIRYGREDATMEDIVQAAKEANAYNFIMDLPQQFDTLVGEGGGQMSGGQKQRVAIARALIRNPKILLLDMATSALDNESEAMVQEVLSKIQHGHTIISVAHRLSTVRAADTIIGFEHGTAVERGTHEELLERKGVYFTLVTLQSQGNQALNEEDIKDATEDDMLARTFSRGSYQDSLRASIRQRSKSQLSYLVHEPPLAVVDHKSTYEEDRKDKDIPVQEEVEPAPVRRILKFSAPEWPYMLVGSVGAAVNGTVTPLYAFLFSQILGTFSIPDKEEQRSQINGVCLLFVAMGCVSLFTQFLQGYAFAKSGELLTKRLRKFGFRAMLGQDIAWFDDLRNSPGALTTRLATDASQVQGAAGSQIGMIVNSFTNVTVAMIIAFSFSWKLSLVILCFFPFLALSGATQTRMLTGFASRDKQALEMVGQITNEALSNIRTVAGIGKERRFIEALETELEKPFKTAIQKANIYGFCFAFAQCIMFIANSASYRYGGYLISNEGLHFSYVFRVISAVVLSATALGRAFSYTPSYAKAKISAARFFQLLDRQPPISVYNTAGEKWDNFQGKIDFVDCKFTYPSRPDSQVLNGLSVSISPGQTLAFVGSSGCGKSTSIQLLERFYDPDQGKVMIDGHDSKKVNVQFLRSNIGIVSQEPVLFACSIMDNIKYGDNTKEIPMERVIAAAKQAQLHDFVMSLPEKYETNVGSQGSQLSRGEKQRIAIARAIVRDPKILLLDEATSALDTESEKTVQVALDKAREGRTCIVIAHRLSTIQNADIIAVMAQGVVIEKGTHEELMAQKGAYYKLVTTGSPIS
- methodDescription: in vitro
assayReadout: activity at 30 min, 25 μM (%)
The figure you give is taken to be in %; do not add the unit.

[ask] For the compound O=C(O)CCCc1ccccc1 [Sodium phenylbutyrate] , give its measured activity at 30 min, 25 μM value.
[reply] 77.2

###

So I've got a bunch of molecules here, and I need their ATP-Dependent Uptake Activity of test article values.
- tgt: BSEP (Homo sapiens)
- methodDescription: ATP-dependent uptake of test article by BSEP-transfected Sf9 membrane vesicles (substrate assessment)
- conditionParameters: test article 10 μM
Entry rule: numbers only, all in pmol/minute/mg protein.

[ask] State, in one line, measured ATP-Dependent Uptake Activity of test article of "O=C(O)Cc1ccccc1"
[reply] 814

[ask] Please give the documented ATP-Dependent Uptake Activity of test article of "C[C@H](CCC(=O)O)[C@H]1CC[C@H]2[C@@H]3[C@@H](O)C[C@@H]4C[C@H](O)CC[C@]4(C)[C@H]3CC[C@]12C"
[reply] 0.792

[ask] Report measured ATP-Dependent Uptake Activity of test article; entry is "C[C@H](CCC(=O)NCCS(=O)(=O)O)[C@H]1CC[C@H]2[C@@H]3[C@@H](O)C[C@@H]4C[C@H](O)CC[C@]4(C)[C@H]3CC[C@]12C"
[reply] 22.4

[ask] Consider the molecule "C[C@H](CCC(=O)NCC(=O)O)[C@H]1CC[C@H]2[C@@H]3[C@@H](O)C[C@@H]4C[C@H](O)CC[C@]4(C)[C@H]3CC[C@]12C" and give its recorded ATP-Dependent Uptake Activity of test article.
[reply] 14.2

###

- tgt: BSEP (Homo sapiens, UniProt O95342)
- methodDescription: in vitro
assayReadout: activity at 30 min, 10 μM (%)
Numeric answer only, unit % assumed.

[ask] Supply measured activity at 30 min, 10 μM of "C[C@H](CCC(=O)NCC(=O)O)[C@H]1CC[C@H]2[C@@H]3[C@@H](O)C[C@@H]4C[C@H](O)CC[C@]4(C)[C@H]3CC[C@]12C" in your reply.
[reply] 48.3

###

- tgt: BSEP (Homo sapiens)
- methodDescription: ATP-dependent uptake of test article by BSEP-transfected Sf9 membrane vesicles (substrate assessment)
- conditionParameters: test article 10 μM + cyclosporine 20 μM
assayReadout: Uptake Activity of test article, Mg-AMP (pmol/minute/mg protein)
Please give a number only; it is taken to be in pmol/minute/mg protein.

[ask] Input C[C@H](CCC(=O)NCC(=O)O)[C@H]1CC[C@H]2[C@@H]3[C@@H](O)C[C@@H]4C[C@H](O)CC[C@]4(C)[C@H]3CC[C@]12C [Glycoursodeoxycholic acid] , output reported Uptake Activity of test article, Mg-AMP.
[reply] 6.93

[ask] Specify Uptake Activity of test article, Mg-AMP for O=C(O)Cc1ccccc1 [Phenylacetic acid] and stop.
[reply] 84.7

[ask] For the compound C[C@H](CCC(=O)NCCS(=O)(=O)O)[C@H]1CC[C@H]2[C@@H]3[C@@H](O)C[C@@H]4C[C@H](O)CC[C@]4(C)[C@H]3CC[C@]12C [Tauroursodeoxycholic acid] , report Uptake Activity of test article, Mg-AMP.
[reply] 3.98

###

- tgt: BSEP (Homo sapiens, UniProt O95342)
- methodDescription: ATP-dependent uptake of test article by BSEP-transfected Sf9 membrane vesicles (substrate assessment)
- conditionParameters: test article 10 μM
Could you please report measured Uptake Activity of test article, Mg-AMP for the items listed next?
Your answer should be a plain number; it is taken to be in pmol/minute/mg protein.

[ask] Return Uptake Activity of test article, Mg-AMP (reported value) for this molecule: "O=C(O)Cc1ccccc1"
[reply] 70.3

[ask] Please list Uptake Activity of test article, Mg-AMP recorded for the molecule "C[C@H](CCC(=O)NCCS(=O)(=O)O)[C@H]1CC[C@H]2[C@@H]3[C@@H](O)C[C@@H]4C[C@H](O)CC[C@]4(C)[C@H]3CC[C@]12C"
[reply] 2.33

###

- tgt: UniProt:O95342
- methodDescription: in vitro
assayReadout: activity at 30 min, 7500 μM
Write the quantity with the unit trailing the number.

[ask] Recall and state the measured activity at 30 min, 7500 μM for O=C(O)Cc1ccccc1 [Phenylacetic acid] .
[reply] 0%

###

- tgt: BSEP (Homo sapiens)
- methodDescription: ATP-dependent uptake of test article by BSEP-transfected Sf9 membrane vesicles (substrate assessment)
- conditionParameters: test article 1 μM + cyclosporine 20 μM
assayReadout: Uptake Activity of test article, Mg-ATP

C[C@H](CCC(=O)NCC(=O)O)[C@H]1CC[C@H]2[C@@H]3[C@@H](O)C[C@@H]4C[C@H](O)CC[C@]4(C)[C@H]3CC[C@]12C = BLQ
O=C(O)Cc1ccccc1 = 25.9 pmol/minute/mg protein
C[C@H](CCC(=O)NCCS(=O)(=O)O)[C@H]1CC[C@H]2[C@@H]3[C@@H](O)C[C@@H]4C[C@H](O)CC[C@]4(C)[C@H]3CC[C@]12C = BLQ
C[C@H](CCC(=O)O)[C@H]1CC[C@H]2[C@@H]3[C@@H](O)C[C@@H]4C[C@H](O)CC[C@]4(C)[C@H]3CC[C@]12C = BLQ

###

- tgt: BSEP (Homo sapiens)
- methodDescription: in vitro
assayReadout: activity at 30 min, 750 μM (%)
Just the number please, in %, no unit attached.

[ask] Answer with reported activity at 30 min, 750 μM of "O=C(O)Cc1ccccc1"
[reply] 99.6

###

- tgt: BSEP (Homo sapiens, UniProt O95342)
- methodDescription: ATP-dependent uptake of test article by BSEP-transfected Sf9 membrane vesicles (substrate assessment)
- conditionParameters: test article 10 μM + cyclosporine 20 μM
Give Uptake Activity of test article, Mg-ATP for every item shown.
Express your answer in pmol/minute/mg protein, writing the number without its unit.

[ask] Query Uptake Activity of test article, Mg-ATP for C[C@H](CCC(=O)NCCS(=O)(=O)O)[C@H]1CC[C@H]2[C@@H]3[C@@H](O)C[C@@H]4C[C@H](O)CC[C@]4(C)[C@H]3CC[C@]12C [Tauroursodeoxycholic acid]
[reply] 6.79

[ask] Report Uptake Activity of test article, Mg-ATP, nothing else, for this compound: O=C(O)Cc1ccccc1 [Phenylacetic acid]
[reply] 857

###

Hi there, I'd appreciate the recorded ATP-Dependent Uptake Activity of test article for every entry that follows.
- tgt: BSEP (Homo sapiens, UniProt O95342)
- methodDescription: ATP-dependent uptake of test article by BSEP-transfected Sf9 membrane vesicles (substrate assessment)
- conditionParameters: test article 1 μM
Supply the numeric figure in pmol/minute/mg protein, leaving out any unit text.

[ask] Report measured ATP-Dependent Uptake Activity of test article; entry is "C[C@H](CCC(=O)NCC(=O)O)[C@H]1CC[C@H]2[C@@H]3[C@@H](O)C[C@@H]4C[C@H](O)CC[C@]4(C)[C@H]3CC[C@]12C"
[reply] 11.2

[ask] Identify ATP-Dependent Uptake Activity of test article associated with the compound "C[C@H](CCC(=O)NCCS(=O)(=O)O)[C@H]1CC[C@H]2[C@@H]3[C@@H](O)C[C@@H]4C[C@H](O)CC[C@]4(C)[C@H]3CC[C@]12C"
[reply] 14.4

[ask] Recall and state the measured ATP-Dependent Uptake Activity of test article for "O=C(O)Cc1ccccc1" .
[reply] 24.2

###

- methodDescription: Solubility in stock solvent and assay buffers
- conditionParameters: aqueous buffer, kinetic from dmso stock
assayReadout: solubility (mM)
Write the answer as a number in mM, unit excluded.

[ask] For the compound "O=C(O)Cc1ccccc1" , report solubility.
[reply] 7.5

###

- tgt: BSEP (Homo sapiens, UniProt O95342)
- methodDescription: in vitro
assayReadout: IC50 at 30 min

[ask] Given C[C@H](CCC(=O)O)[C@H]1CC[C@H]2[C@@H]3[C@@H](O)C[C@@H]4C[C@H](O)CC[C@]4(C)[C@H]3CC[C@]12C [Ursodeoxycholic acid] , respond with its IC50 at 30 min.
[reply] < 500 µM

###

- tgt: BSEP (Homo sapiens, UniProt O95342)
- methodDescription: in vitro
assayReadout: activity at 30 min, 100 μM (%)
Give a bare numeral; the unit % is implied.

[ask] Report measured activity at 30 min, 100 μM; entry is "C[C@H](CCC(=O)NCC(=O)O)[C@H]1CC[C@H]2[C@@H]3[C@@H](O)C[C@@H]4C[C@H](O)CC[C@]4(C)[C@H]3CC[C@]12C"
[reply] 10.4

###

- tgt: UniProt O95342
- methodDescription: ATP-dependent uptake of test article by BSEP-transfected Sf9 membrane vesicles (substrate assessment)
- conditionParameters: test article 1 μM
Marks after values point to notes of the source that are not given here.
assayReadout: Uptake Activity of test article, Mg-ATP

O=C(O)CCCc1ccccc1 [Sodium phenylbutyrate] = BLQ
C[C@H](CCC(=O)NCCS(=O)(=O)O)[C@H]1CC[C@H]2[C@@H]3[C@@H](O)C[C@@H]4C[C@H](O)CC[C@]4(C)[C@H]3CC[C@]12C = 19.3^b pmol/minute/mg protein
C[C@H](CCC(=O)O)[C@H]1CC[C@H]2[C@@H]3[C@@H](O)C[C@@H]4C[C@H](O)CC[C@]4(C)[C@H]3CC[C@]12C = BLQ

The measured values listed here are drawn from patent US12138272B2.
